FYI, the data here is from PubChem BioAssay AID686954.

# tested on: Protein artemis (Homo sapiens) (UniProt Q96SD1)
# Sequence (Q96SD1 whole entry, looked up): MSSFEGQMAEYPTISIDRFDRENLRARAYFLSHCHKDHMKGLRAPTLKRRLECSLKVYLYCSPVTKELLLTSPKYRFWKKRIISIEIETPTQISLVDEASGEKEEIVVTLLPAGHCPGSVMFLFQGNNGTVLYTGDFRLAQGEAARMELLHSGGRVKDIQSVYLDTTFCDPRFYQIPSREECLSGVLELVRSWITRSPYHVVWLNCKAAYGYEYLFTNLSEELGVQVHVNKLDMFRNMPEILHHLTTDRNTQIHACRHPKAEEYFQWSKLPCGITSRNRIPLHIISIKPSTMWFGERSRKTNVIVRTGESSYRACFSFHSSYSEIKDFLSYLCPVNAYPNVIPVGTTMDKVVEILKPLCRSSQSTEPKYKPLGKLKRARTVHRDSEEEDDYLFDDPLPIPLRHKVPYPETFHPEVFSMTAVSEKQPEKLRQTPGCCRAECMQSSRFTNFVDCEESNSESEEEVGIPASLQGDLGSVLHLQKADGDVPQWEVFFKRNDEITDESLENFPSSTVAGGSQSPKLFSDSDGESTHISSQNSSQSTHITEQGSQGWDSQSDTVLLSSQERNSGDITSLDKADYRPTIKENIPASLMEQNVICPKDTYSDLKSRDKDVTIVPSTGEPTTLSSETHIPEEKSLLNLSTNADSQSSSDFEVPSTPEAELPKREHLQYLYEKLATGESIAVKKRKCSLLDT
# experiment: blockers of Artemis DNA hairpin overhang cleavage – biochemical, fluorescence intensity, FAM/BHQ-1 hairpin substrate, primary screen (AID 686954)
# condition description: recombinant Artemis, quenched FAM hairpin cleavage fluorescence; at 10 µM
The whole screen tested about 30,000 compounds, of which about 240 (0.8%) were called active.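 How the source made its calls: active means at 10 µM dose, at least 30% inhibition, measured as corrected fluorescence normalized to stimulator and neutral control wells; inactive means the rest.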 What follows is part of a selection rich in actives, with near analogues and random picks from the rest.
Your response should consist of one outcome taken from Yes (active), No (inactive)

INPUT: Returns: the outcome recorded for Cc1c(C(=O)NCc2ccccc2)cnn1-c1ccccc1 in this assay.
OUTPUT: No

INPUT: Please answer likewise for CCC(C)NC(=O)c1cc(Cl)ccc1OC (centres undefined)
OUTPUT: No

INPUT: Please answer likewise for Cc1nnc(SCC(=O)NCCOc2ccc(Cl)cc2)n1-c1ccccc1
OUTPUT: No

INPUT: Please answer likewise for Cc1ccccc1NC(=S)Nc1cccc([N+](=O)[O-])c1
OUTPUT: No

INPUT: Please answer likewise for Cc1ccc(/C=N/NC(=O)c2sccc2OCc2ccc(F)cc2)cc1
OUTPUT: No

INPUT: Please answer likewise for COC(=O)CSC1=C(C#N)C(c2ccccc2OC)C(C(=O)OC)C(=O)N1 (centres undefined)
OUTPUT: No

INPUT: Please answer likewise for O=C(Cn1cncn1)N/N=C/c1c2ccccc2cc2ccccc12
OUTPUT: No

INPUT: Please answer likewise for Nc1c(-c2ccc(F)cc2)cnn1C1CCS(=O)(=O)C1 (centres undefined)
OUTPUT: No

INPUT: Please answer likewise for COc1ccc(-c2nn(-c3ccccc3)cc2C(=O)Nc2nccs2)cc1OC
OUTPUT: No

INPUT: Please answer likewise for COc1ccc(-c2nn(-c3ccccc3)cc2C(=O)Nc2nc(CC(C)=O)ns2)cc1
OUTPUT: Yes

INPUT: Please answer likewise for CCCC(C(=O)NCc1ccco1)N(C(=O)CNS(=O)(=O)c1ccccc1)C1CCCC1 (centres undefined)
OUTPUT: No

INPUT: Please answer likewise for CCCn1c(C)cc(C(=O)COC(=O)c2c(C)nn(-c3ccccc3)c2C)c1C
OUTPUT: No

INPUT: Please answer likewise for CCOC(=O)C1=NNC2(c3ccc(Cl)cc3)C(=O)N(c3cc(C)cc(C)c3)C(=O)C12 (centres undefined)
OUTPUT: No

INPUT: Please answer likewise for O=C(/C=C/Nc1ccccc1OC(F)(F)F)C(F)(F)F
OUTPUT: No
